Molecular target: T1, Caspase-1 (Homo sapiens, UniProt P29466)
T1 construct: purchased BioVision
T1 sequence (P29466 120-297 limits assumed): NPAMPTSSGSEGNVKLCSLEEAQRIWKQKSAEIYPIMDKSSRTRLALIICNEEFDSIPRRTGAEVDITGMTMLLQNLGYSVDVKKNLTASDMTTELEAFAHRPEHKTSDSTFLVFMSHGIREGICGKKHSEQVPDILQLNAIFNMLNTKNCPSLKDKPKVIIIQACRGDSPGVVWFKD
T1 sequence (P29466 317-404 limits assumed): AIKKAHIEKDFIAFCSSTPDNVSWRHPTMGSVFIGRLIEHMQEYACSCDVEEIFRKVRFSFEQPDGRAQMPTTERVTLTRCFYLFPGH
Test: SEPARATE assay: human peptidome library digest with Caspase-1
Format: biochemical
Details: top 20 enriched peptides, human library (90-aa tiles); normalized read counts digest vs mock digest

molecule	Caspase1 fold change (fold)
Hyls1 1-90: 90-aa human peptidome tile displayed on T7 phage (protein, UniProt Q96M11 1-90, looked up, fragment, displayed on T7 phage) MEELLPDGQIWANMDPEERMLAAATAFTHICAGQGEGDVRREAQSIQYDPYSKASVAPGKRPALPVQLQYPHVESNVPSETVSEASQRLR	19.74
